Origin of the recorded values: patent US12371434B2

- TARGET: wild type MLL1 four-member complex (MLL1-4C) (Homo sapiens, UniProt Q03164)
- METHOD: MLL1 LC-MS assay
- RUN_CONDITIONS: 30 nM MLL1-4C, 2.5 μM SAM, 10 μM H3K4me0; SAH production by LC-MS/MS; read-out: MLL1 LCMS
pIC50: −log10 of the molar value.
MEASURED_ENDPOINT: pIC50

What measured pIC50 goes with COC[C@H](N)CCCOc1ccc2cc(Br)ccc2c1Cn1cnc2c(N)ncnc21 [Example 20] ?
7.00 to 7.30

Which value of pIC50 has been reported for CCOC(=O)[C@H](N)CCC(C)Oc1ccc(Cl)c(Cl)c1Cn1cnc2c(N)ncnc21 (stereo partly shown) [Example 30] in the records?
7.00 to 7.30

Query (compound): COCCOC[C@H](N)CCCOc1ccc(Cl)c(Cl)c1Cn1cnc2c(N)ncnc21 [Example 47] ; field requested: pIC50
< 7.00

Record request: pIC50 value, item Nc1ncnn2c(Cc3c(OCCC[C@@H](N)C(=O)NC4CC4)ccc(Cl)c3Cl)cnc12 [Example 36]
> 7.30

# input compound: COC[C@H](N)CCCOc1cc2ccccc2cc1Cn1cnc2c(N)ncnc21 [Example 21] ; wanted: its pIC50
7.00 to 7.30

Name the reported pIC50 value associated with the compound NC(=O)[C@H](N)CCCOc1ccc(Cl)c(Cl)c1Cc1cnc2c(N)ncnn12 [Example 35]
< 7.00

Any idea what pIC50 was measured for Nc1ncnc2c1ncn2Cc1c(OCCC[C@@H](N)C(=O)O)ccc(Cl)c1Cl [Example 23] ?
> 7.30

Query (compound): CSC[C@H](N)CCCOc1ccc(Cl)c(Cl)c1Cn1cnc2c(N)ncnc21 [Example 52] ; field requested: pIC50
7.00 to 7.30

Sample Nc1ncnn2c(Cc3c(OCCC[C@@H](N)C(=O)O)ccc(Cl)c3Cl)cnc12 [Example 24] — what was its pIC50?
7.00 to 7.30

Give its pIC50 value. Item: COC[C@H](N)CCOc1cc(Cl)cc(Br)c1Cn1cnc2c(N)ncnc21 [Example 2]
< 7.00

Would you kindly share the measured pIC50 for Nc1ncnc2c1ncn2Cc1c(OCCC[C@@H](N)CO)ccc(Cl)c1Cl [Example 45] ?
7.00 to 7.30

pIC50 for COC[C@@H](N)CCOc1ccc(Cl)c(Cl)c1Cc1cnn2c(N)ncnc12 [Example 17] ?
< 7.00

Would you kindly share the measured pIC50 for CCOC(=O)[C@H](N)CCCOc1cc(Cl)cc(Cl)c1Cn1cnc2c(N)ncnc21 [Example 32] ?
7.00 to 7.30

Form field: reported pIC50 of CN[C@H](CCCOc1cc(Cl)cc(Br)c1Cn1cnc2c(N)ncnc21)COC [Example 22]
< 7.00

Endpoint output: pIC50 of Cc1nnc([C@H](N)CCCOc2ccc(Cl)c(Cl)c2Cn2cnc3c(N)ncnc32)s1 [Example 50] . Value?
> 7.30

What value of pIC50 has been recorded for this entry: Nc1ncnc2c1ncn2Cc1c(OCCC[C@@H](N)Cn2cccn2)ccc(Cl)c1Cl [Example 49]
7.00 to 7.30

Which pIC50 reading was recorded for the compound COc1nc(N)c2ncn(Cc3c(Cl)cc(Cl)cc3OCCC[C@@H](N)C(=O)O)c2n1 [Example 27] ?
7.00 to 7.30

Recorded pIC50 for COC[C@H](N)CCCOc1cc(Cl)cc(Br)c1Cc1cnn2c(N)ncnc12 [Example 9] , please?
< 7.00

// lookup pIC50 for COC(=O)[C@H](N)CCCOc1ccc(Cl)c(Cl)c1Cc1cnc2c(N)ncnn12 [Example 34]
7.00 to 7.30

What pIC50 value was documented for this compound, COC[C@H](N)COc1ccc2ccccc2c1Cn1cnc2c(N)ncnc21 [Example 19] ?
7.00 to 7.30

What does the data say about its pIC50? Entry: Nc1ncc(Cl)c2c1ncn2Cc1c(Cl)cc(Cl)cc1OCCCC(N)C(=O)O (stereo not shown) [Example 28]
< 7.00

What measured pIC50 goes with COC(=O)[C@H](N)CCCOc1ccc(Cl)c(Cl)c1Cn1cnc2c(N)ncnc21 [Example 33] ?
> 7.30
